Readout label: melting point (°C)
State the answer as a number, implicitly in °C.

>  <Structure smiles>
Cc1c(C(=O)OC(C)(C)C)nn(-c2ccc(Cl)cc2Cl)c1-c1ccc(Cl)cc1

>  <melting point / °C>
112

$$$$

Proceeding to the next molecule to report its melting point.
Item: `O=C(NC1CCCCC1)NC1CCN(CCc2c[nH]c3ccccc23)CC1` | melting point: 204

----------
Readout label: melting point (°C)

Recorded melting point, per entry:
>  <Molecule>
S=C(Oc1ccccc1)c1ccccc1

>  <Readout units>
°C

>  <melting point>
56

$$$$
>  <Molecule>
CCc1ccc2c(c1)C=Cc1cc(O)ccc1C2c1cn(-c2ccnc(NCC(=O)Nc3nc(CC(=O)O)cs3)n2)c(=O)[nH]c1=O (stereo not drawn)

>  <Readout units>
°C

>  <melting point>
225

$$$$

[a] Nc1c(Br)cc(Br)c(O)c1Br
[b] O=C(O)c1ccc2c(c1)S(=O)c1ccccc1O2 (stereo not drawn)
// query Compare the recorded melting point of a and b ; state which is larger. Label of pick, please.
// result b
(b: 223 °C, a: 119 °C)
